condition.details: in water, 298.15 K
measurement.type: solubility (mole fraction)
In your answer, state the number alone without any accompanying words.

Input line: Quick check: solubility (mole fraction) of CC1=C(O)C(=O)C(C)O1 (stereo unspecified) ?
Output line: 0.0408

###

condition.details: in water, 293.15 K
measurement.type: solubility (mole fraction)
Answer field: number only, no words.

Input line: Reported solubility (mole fraction), molecule CC1=C(O)C(=O)C(C)O1 (stereo unspecified) : ____
Output line: 0.0251

###

condition.details: in methanol, 288.15 K
measurement.type: solubility (mole fraction)
// keep it numeric: no unit symbol after the value

Input line: // lookup solubility (mole fraction) for CC1=C(O)C(=O)C(C)O1 (stereo unspecified)
Output line: 0.174
